study-target: Angiopoietin-1 receptor (Homo sapiens, UniProt Q02763)
Sequence (Q02763 whole entry): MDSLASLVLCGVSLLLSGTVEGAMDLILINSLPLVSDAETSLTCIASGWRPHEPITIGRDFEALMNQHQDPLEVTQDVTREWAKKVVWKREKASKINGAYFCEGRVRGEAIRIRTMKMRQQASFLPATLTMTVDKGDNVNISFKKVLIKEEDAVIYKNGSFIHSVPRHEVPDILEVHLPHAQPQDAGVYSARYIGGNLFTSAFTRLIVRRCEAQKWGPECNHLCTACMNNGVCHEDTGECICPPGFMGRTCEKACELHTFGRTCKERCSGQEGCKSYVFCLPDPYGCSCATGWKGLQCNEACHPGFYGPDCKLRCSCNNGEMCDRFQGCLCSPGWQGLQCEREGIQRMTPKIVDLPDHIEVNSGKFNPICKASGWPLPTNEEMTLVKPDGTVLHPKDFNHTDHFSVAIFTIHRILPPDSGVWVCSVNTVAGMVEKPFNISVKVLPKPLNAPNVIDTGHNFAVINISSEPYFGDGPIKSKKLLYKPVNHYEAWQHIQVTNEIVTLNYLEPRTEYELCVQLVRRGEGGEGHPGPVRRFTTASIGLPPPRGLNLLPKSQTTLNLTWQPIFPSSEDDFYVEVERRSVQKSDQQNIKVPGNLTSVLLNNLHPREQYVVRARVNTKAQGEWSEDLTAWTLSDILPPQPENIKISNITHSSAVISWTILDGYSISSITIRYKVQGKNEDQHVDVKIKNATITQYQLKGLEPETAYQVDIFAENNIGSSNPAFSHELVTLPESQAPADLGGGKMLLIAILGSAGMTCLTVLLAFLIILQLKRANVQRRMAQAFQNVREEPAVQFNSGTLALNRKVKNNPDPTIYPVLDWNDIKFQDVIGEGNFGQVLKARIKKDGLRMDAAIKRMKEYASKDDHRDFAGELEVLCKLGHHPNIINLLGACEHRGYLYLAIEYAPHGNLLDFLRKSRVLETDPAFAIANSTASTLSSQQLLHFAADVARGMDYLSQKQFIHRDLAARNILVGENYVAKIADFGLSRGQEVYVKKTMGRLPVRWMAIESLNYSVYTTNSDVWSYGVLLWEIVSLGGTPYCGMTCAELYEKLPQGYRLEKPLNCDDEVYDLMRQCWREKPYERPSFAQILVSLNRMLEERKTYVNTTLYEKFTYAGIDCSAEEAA
test-name: Binding affinity to human recombinant Tie2 by SPR assay
pKd: −log10 of the molar value.

- compound: "O=C(O)COCCN1CCN(C(c2ccccc2)c2ccc(Cl)cc2)CC1 (centres undefined)"
  pKd: 4.05
- compound: "O=C(N[C@H](Cc1ccccc1F)C(=O)O)OCC1c2ccccc2-c2ccccc21"
  pKd: 3.92
- compound: "CN(C)C(=O)C(CCN1CCC(O)(c2ccc(Cl)cc2)CC1)(c1ccccc1)c1ccccc1 [LOPERAMIDE]"
  pKd: 5.23
- compound: "CC1(C)S[C@@H]2[C@H](NC(=O)[C@H](N)c3ccccc3)C(=O)N2[C@H]1C(=O)O"
  pKd: 4.09
